Where do the numbers come from? From the supplement of paper PMC9112550.

Test system: Escherichia coli TOP10;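 note: peptides expressed intracellularly from a pBAD plasmid library in pooled LB shake-flask culture, induced with 0.3% L-arabinose, DNA abundance read by NGS, three biological replicates, DESeq2 with apeglm shrinkage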
experiment: shrunken log2 fold change of peptide-encoding DNA abundance (4.5 h post-induction vs induction); higher = less antimicrobial activity (less host growth inhibition)
condition info: time post-induction: 4.5 h; library: site-saturation at positions 5, 18, 19, 20
Binning scheme for shrunken log2 fold change: lower (below -0.2), middle (-0.2 to below -0.002), upper (-0.002 or more)

[[record]]
sequence_code = "RRIRSRPPRLPRPRPRPHEPPRP"
assayed_system = "Escherichia coli TOP10"
classification = "middle"

[[record]]
sequence_code = "RRIRWRPPRLPRPRPRPPDHPRP"
assayed_system = "Escherichia coli TOP10"
classification = "upper"

[[record]]
sequence_code = "RRIRSRPPRLPRPRPRPFLAPRP"
assayed_system = "Escherichia coli TOP10"
classification = "lower"

[[record]]
sequence_code = "RRIRVRPPRLPRPRPRPSNGPRP"
assayed_system = "Escherichia coli TOP10"
classification = "lower"

[[record]]
sequence_code = "RRIRIRPPRLPRPRPRPAYMPRP"
assayed_system = "Escherichia coli TOP10"
classification = "lower"

[[record]]
sequence_code = "RRIRDRPPRLPRPRPRPHQGPRP"
assayed_system = "Escherichia coli TOP10"
classification = "upper"

[[record]]
sequence_code = "RRIRMRPPRLPRPRPRPKKFPRP"
assayed_system = "Escherichia coli TOP10"
classification = "upper"

[[record]]
sequence_code = "RRIRPRPPRLPRPRPRPYDRPRP"
assayed_system = "Escherichia coli TOP10"
classification = "lower"

[[record]]
sequence_code = "RRIRTRPPRLPRPRPRPWTEPRP"
assayed_system = "Escherichia coli TOP10"
classification = "upper"

[[record]]
sequence_code = "RRIRHRPPRLPRPRPRPYFKPRP"
assayed_system = "Escherichia coli TOP10"
classification = "lower"

[[record]]
sequence_code = "RRIRLRPPRLPRPRPRPTRGPRP"
assayed_system = "Escherichia coli TOP10"
classification = "upper"

[[record]]
sequence_code = "RRIRNRPPRLPRPRPRPYWIPRP"
assayed_system = "Escherichia coli TOP10"
classification = "lower"

[[record]]
sequence_code = "RRIRHRPPRLPRPRPRPGPAPRP"
assayed_system = "Escherichia coli TOP10"
classification = "upper"

[[record]]
sequence_code = "RRIRWRPPRLPRPRPRPGYNPRP"
assayed_system = "Escherichia coli TOP10"
classification = "middle"

[[record]]
sequence_code = "RRIRFRPPRLPRPRPRPKEQPRP"
assayed_system = "Escherichia coli TOP10"
classification = "middle"

[[record]]
sequence_code = "RRIRMRPPRLPRPRPRPRIHPRP"
assayed_system = "Escherichia coli TOP10"
classification = "upper"

[[record]]
sequence_code = "RRIRQRPPRLPRPRPRPHCWPRP"
assayed_system = "Escherichia coli TOP10"
classification = "middle"

[[record]]
sequence_code = "RRIRSRPPRLPRPRPRPIPNPRP"
assayed_system = "Escherichia coli TOP10"
classification = "lower"

[[record]]
sequence_code = "RRIRKRPPRLPRPRPRPVECPRP"
assayed_system = "Escherichia coli TOP10"
classification = "upper"

[[record]]
sequence_code = "RRIRKRPPRLPRPRPRPGSKPRP"
assayed_system = "Escherichia coli TOP10"
classification = "middle"

[[record]]
sequence_code = "RRIRVRPPRLPRPRPRPWKCPRP"
assayed_system = "Escherichia coli TOP10"
classification = "middle"

[[record]]
sequence_code = "RRIRQRPPRLPRPRPRPNMPPRP"
assayed_system = "Escherichia coli TOP10"
classification = "lower"

